Task for the reader: assign each of the following compounds its reported absorption maximum (λabs).
test description: Photophysical properties in phosphate buffer in the absence of HSA
Type: physicochemical
experimental parameters: phosphate buffer (pH 7.4)

| mol | result |
| --- | --- |
| CC1(C)C(=CC2=C(N)C(=CC3=[N+](CCCc4ccccc4)c4ccccc4C3(C)C)C2=O)N(CCCc2ccccc2)c2ccccc21.[I-] | 605 nm |
| CNC1=C(C=C2N(CCCc3ccccc3)c3ccccc3C2(C)C)C(=O)C1=CC1=[N+](CCCc2ccccc2)c2ccccc2C1(C)C.[I-] | 655 nm |
| CC1(C)C(=CC2=C([O-])C(=CC3=[N+](CCCc4ccccc4)c4ccccc4C3(C)C)C2=O)N(CCCc2ccccc2)c2ccccc21 | 605 nm |

Now for another entry.
Lab note: CC1(C)C(=CC2=C(NCc3ccc4ccc5cccc6ccc3c4c56)C(=CC3=[N+](CCCc4ccccc4)c4ccccc4C3(C)C)C2=O)N(CCCc2ccccc2)c2ccccc21.[I-] gave absorption maximum (λabs) of 672 nm

====

Task for the reader: assign each of the following compounds its reported IC50.
Test system: normal human dermal fibroblasts (NHDF)
test description: MTT dark and light-induced cytotoxicity in NHDF
Type: cell-based
experimental parameters: Homo sapiens, light or radiation study; NHDF, Light; 24 h incubation, 7 min LED 663 nm, MTT 24 h post-irradiation
Procedure: For potential applicability as photosensitizers in PDT, these candidates are expected to display cytotoxic effects only after photoactivation, namely, and preferably restricted to target tissue cells, without inducing damage to healthy counterparts. […] Twenty-four hours post-irradiation, cellular metabolic activity was assessed by the MTT assay. The in cell photocytotoxicity of the squaraine dyes was assessed using the MTT assay. […]

| mol | IC50 |
| --- | --- |
| CC1(C)C(=CC2=C(N)C(=CC3=[N+](CCCc4ccccc4)c4ccccc4C3(C)C)C2=O)N(CCCc2ccccc2)c2ccccc21.[I-] | 3.79 µM |

I'm hoping you can list IC50 for every compound here, please.
1. CNC1=C(C=C2N(CCCc3ccccc3)c3ccccc3C2(C)C)C(=O)C1=CC1=[N+](CCCc2ccccc2)c2ccccc2C1(C)C.[I-]
2. CC1(C)C(=CC2=C(NCc3ccc4ccc5cccc6ccc3c4c56)C(=CC3=[N+](CCCc4ccccc4)c4ccccc4C3(C)C)C2=O)N(CCCc2ccccc2)c2ccccc21.[I-]
3. CC1(C)C(=CC2=C([O-])C(=CC3=[N+](CCCc4ccccc4)c4ccccc4C3(C)C)C2=O)N(CCCc2ccccc2)c2ccccc21

Completion:
3.24 µM
> 10 µM
7.41 µM

====

Task for the reader: assign each of the following molecules its reported IC50.
Tested on: prostate adenocarcinoma (PC-3) cell line
test description: MTT dark and light-induced cytotoxicity in PC-3
Assay type: cell-based, human
experimental parameters: Homo sapiens; PC-3, Dark; 24 h incubation, MTT 24 h later
Give bare numbers, in µM.

| molecule | units label | quantitative result |
| --- | --- | --- |
| CC1(C)C(=CC2=C(N)C(=CC3=[N+](CCCc4ccccc4)c4ccccc4C3(C)C)C2=O)N(CCCc2ccccc2)c2ccccc21.[I-] [Dye 9] | µM | 1.21 |

Lab note: CNC1=C(C=C2N(CCCc3ccccc3)c3ccccc3C2(C)C)C(=O)C1=CC1=[N+](CCCc2ccccc2)c2ccccc2C1(C)C.[I-] [Dye 11] gave IC50 of 1.44

====

Task for the reader: assign each of the following compounds its reported fluorescence quantum yield (ΦF).
test description: Absorption and fluorescence photophysical characterization in organic solvents
Format: physicochemical
experimental parameters: DMSO; relative to zinc phthalocyanine
Numbers only.

I'm hoping you can list fluorescence quantum yield (ΦF) for every compound here, please.
1. CC1(C)C(=CC2=C([O-])C(=CC3=[N+](CCCc4ccccc4)c4ccccc4C3(C)C)C2=O)N(CCCc2ccccc2)c2ccccc21
2. CC1(C)C(=CC2=C(N)C(=CC3=[N+](CCCc4ccccc4)c4ccccc4C3(C)C)C2=O)N(CCCc2ccccc2)c2ccccc21.[I-]
3. CNC1=C(C=C2N(CCCc3ccccc3)c3ccccc3C2(C)C)C(=O)C1=CC1=[N+](CCCc2ccccc2)c2ccccc2C1(C)C.[I-]

Completion:
[1.00, 0.12, 0.04]

Lab note: CC1(C)C(=CC2=C(NCc3ccc4ccc5cccc6ccc3c4c56)C(=CC3=[N+](CCCc4ccccc4)c4ccccc4C3(C)C)C2=O)N(CCCc2ccccc2)c2ccccc21.[I-] gave fluorescence quantum yield (ΦF) of 0.05

====

assay target: human serum albumin (HSA) (Homo sapiens)
Sequence (P02768 25-609): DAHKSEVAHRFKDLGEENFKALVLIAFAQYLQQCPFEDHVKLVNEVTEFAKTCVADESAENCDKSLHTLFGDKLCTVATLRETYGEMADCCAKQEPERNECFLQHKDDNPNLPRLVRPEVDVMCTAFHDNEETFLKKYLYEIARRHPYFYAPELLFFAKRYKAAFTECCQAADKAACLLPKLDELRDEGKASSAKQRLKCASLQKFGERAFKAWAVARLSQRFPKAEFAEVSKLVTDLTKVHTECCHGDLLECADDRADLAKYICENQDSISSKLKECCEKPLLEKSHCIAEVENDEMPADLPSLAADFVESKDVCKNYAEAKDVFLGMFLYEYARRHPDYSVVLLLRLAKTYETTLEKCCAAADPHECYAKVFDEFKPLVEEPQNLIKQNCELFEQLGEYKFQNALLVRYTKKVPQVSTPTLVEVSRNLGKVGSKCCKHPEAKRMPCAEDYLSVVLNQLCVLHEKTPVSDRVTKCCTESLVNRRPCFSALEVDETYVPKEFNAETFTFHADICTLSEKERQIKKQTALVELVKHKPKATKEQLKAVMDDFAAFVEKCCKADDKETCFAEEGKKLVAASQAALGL
test description: Fluorometric squaraine-albumin binding titration
experimental parameters: dye 2.0 µM, highest HSA concentration
quantity name: fluorescence intensity at the highest protein concentration (F) (a.u.)
Numbers only, in a.u..

Completed entries (count: 3):
| mol | quantitative result |
| --- | --- |
| CC1(C)C(=CC2=C(N)C(=CC3=[N+](CCCc4ccccc4)c4ccccc4C3(C)C)C2=O)N(CCCc2ccccc2)c2ccccc21.[I-] | 917.53 |
| CC1(C)C(=CC2=C(NCc3ccc4ccc5cccc6ccc3c4c56)C(=CC3=[N+](CCCc4ccccc4)c4ccccc4C3(C)C)C2=O)N(CCCc2ccccc2)c2ccccc21.[I-] | 115.89 |
| CC1(C)C(=CC2=C([O-])C(=CC3=[N+](CCCc4ccccc4)c4ccccc4C3(C)C)C2=O)N(CCCc2ccccc2)c2ccccc21 | 680.15 |

Now for another entry.
Lab note: CNC1=C(C=C2N(CCCc3ccccc3)c3ccccc3C2(C)C)C(=O)C1=CC1=[N+](CCCc2ccccc2)c2ccccc2C1(C)C.[I-] gave fluorescence intensity at the highest protein concentration (F) of 360.94

====

Task for the reader: assign each of the following compounds its reported absorption maximum (λabs).
test description: Absorption and fluorescence photophysical characterization in organic solvents
Format: physicochemical
experimental parameters: methanol (MeOH)
One number for each entry, in nm.

Completed entries (count: 3):
| mol | absorption maximum (λabs) [nm] |
| --- | --- |
| CC1(C)C(=CC2=C([O-])C(=CC3=[N+](CCCc4ccccc4)c4ccccc4C3(C)C)C2=O)N(CCCc2ccccc2)c2ccccc21 | 631 |
| CNC1=C(C=C2N(CCCc3ccccc3)c3ccccc3C2(C)C)C(=O)C1=CC1=[N+](CCCc2ccccc2)c2ccccc2C1(C)C.[I-] | 650 |
| CC1(C)C(=CC2=C(NCc3ccc4ccc5cccc6ccc3c4c56)C(=CC3=[N+](CCCc4ccccc4)c4ccccc4C3(C)C)C2=O)N(CCCc2ccccc2)c2ccccc21.[I-] | 650 |

Lab note: CC1(C)C(=CC2=C(N)C(=CC3=[N+](CCCc4ccccc4)c4ccccc4C3(C)C)C2=O)N(CCCc2ccccc2)c2ccccc21.[I-] gave absorption maximum (λabs) of 640

====

Task for the reader: assign each of the following compounds its reported emission maximum (λem).
test description: Absorption and fluorescence photophysical characterization in organic solvents
Type: physicochemical
experimental parameters: chloroform (CFM)
One number for each entry, in nm.

Completed entries (count: 3):
| mol | units label | emission maximum (λem) |
| --- | --- | --- |
| CC1(C)C(=CC2=C([O-])C(=CC3=[N+](CCCc4ccccc4)c4ccccc4C3(C)C)C2=O)N(CCCc2ccccc2)c2ccccc21 | nm | 639 |
| CC1(C)C(=CC2=C(NCc3ccc4ccc5cccc6ccc3c4c56)C(=CC3=[N+](CCCc4ccccc4)c4ccccc4C3(C)C)C2=O)N(CCCc2ccccc2)c2ccccc21.[I-] | nm | 671 |
| CC1(C)C(=CC2=C(N)C(=CC3=[N+](CCCc4ccccc4)c4ccccc4C3(C)C)C2=O)N(CCCc2ccccc2)c2ccccc21.[I-] | nm | 656 |

Now for another entry.
Lab note: CNC1=C(C=C2N(CCCc3ccccc3)c3ccccc3C2(C)C)C(=O)C1=CC1=[N+](CCCc2ccccc2)c2ccccc2C1(C)C.[I-] gave emission maximum (λem) of 670

====

Task for the reader: assign each of the following molecules its reported fluorescence quantum yield (ΦF).
assay target: human serum albumin (HSA) (Homo sapiens)
test description: Fluorometric squaraine-albumin binding titration
experimental parameters: phosphate buffer (pH 7.4), HSA presence
Numbers only.

Completed entries (count: 3):
| molecule | fluorescence quantum yield (ΦF) |
| --- | --- |
| CC1(C)C(=CC2=C([O-])C(=CC3=[N+](CCCc4ccccc4)c4ccccc4C3(C)C)C2=O)N(CCCc2ccccc2)c2ccccc21 [Dye 5] | 0.20 |
| CC1(C)C(=CC2=C(NCc3ccc4ccc5cccc6ccc3c4c56)C(=CC3=[N+](CCCc4ccccc4)c4ccccc4C3(C)C)C2=O)N(CCCc2ccccc2)c2ccccc21.[I-] [Dye 14] | 0.01 |
| CNC1=C(C=C2N(CCCc3ccccc3)c3ccccc3C2(C)C)C(=O)C1=CC1=[N+](CCCc2ccccc2)c2ccccc2C1(C)C.[I-] [Dye 11] | 0.04 |

Now for another entry.
So the reported fluorescence quantum yield (ΦF) for CC1(C)C(=CC2=C(N)C(=CC3=[N+](CCCc4ccccc4)c4ccccc4C3(C)C)C2=O)N(CCCc2ccccc2)c2ccccc21.[I-] [Dye 9] , on human serum albumin (HSA) (Homo sapiens), turned out to be 0.07
